- subjectOfTest: elastase (Sus scrofa, UniProt P00772)
- Construct: purchased Invitrogen
- Sequence (P00772 27-266): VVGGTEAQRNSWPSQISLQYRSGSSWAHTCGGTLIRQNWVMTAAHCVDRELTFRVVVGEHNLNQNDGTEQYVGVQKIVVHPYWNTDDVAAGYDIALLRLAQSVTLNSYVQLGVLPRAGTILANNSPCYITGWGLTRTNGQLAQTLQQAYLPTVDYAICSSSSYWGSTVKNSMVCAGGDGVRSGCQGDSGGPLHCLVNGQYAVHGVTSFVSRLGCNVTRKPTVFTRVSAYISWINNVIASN
- assayRemarks: Elastase inhibitory activity (EnzChek Elastase Assay Kit, DQ elastin)
- Type: biochemical
- assaySetup: 0.06 mg/ml
Would you mind telling me the reported inhibition at 60 µg/mL of each entry?
One number for each entry, in %.

Ask | Tell me inhibition at 60 µg/mL reported for CCCCCCCCCCCCCCCC(=O)N1CCC[C@H]1C(=O)NCC(=O)N[C@@H](CC(N)=O)C(=O)O
Reply | 1.5

Ask | Tell me inhibition at 60 µg/mL reported for CCCOC(=O)[C@H](CC(N)=O)NC(=O)CNC(=O)[C@@H]1CCCN1
Reply | 34.2

Ask | Tell me inhibition at 60 µg/mL reported for CN1CCC[C@H]1C(=O)NCC(=O)N[C@@H](CC(N)=O)C(=O)O
Reply | 9.9

Query compound follows.
Ask | Tell me inhibition at 60 µg/mL reported for NC(=O)C[C@H](NC(=O)CNC(=O)[C@@H]1CCCN1)C(=O)O [PGN, Pro-Gly-Asn, reference compound]
Reply | 6.1

Every entry's value here was drawn from patent US20230312643A1.
